test system: sheep red blood cells; details: 50 μg/mL peptide; sheep red blood cells in PBS, 37°C, 1 h, OD576, relative to melittin; mean ± SD, three repeats;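 further: hemolysis expressed in % from supernatant absorbance, with PBS-treated cells as 0% baseline and melittin as 100%, peptide mixed 1:1 with an 8% v/v erythrocyte suspension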
Where a SMILES comes first, the peptide text is derived from it.
reported.endpoint: Hemolytic rate, 50 μg/mL (%)

>>> readout_value("CC[C@H](C)[C@H](NC(=O)[C@H](CCCNC(=N)N)NC(=O)[C@H](CCCNC(=N)N)NC(=O)[C@H](Cc1ccccc1)NC(=O)[C@H](CC(C)C)NC(=O)[C@H](CCCNC(=N)N)NC(=O)[C@@H](N)CCCNC(=N)N)C(=O)N[C@@H](CC(C)C)C(=O)N[C@H](CCCNC(=N)N)C(=O)N[C@@H](Cc1c[nH]c2ccccc12)C(=O)N[C@@H](CC(C)C)C(N)=O [RW-BP100-9D] (HELM PEPTIDE1{R.R.L.F.R.R.I.L.[dR].W.L.[am]}$$$$V2.0)")
0.63
>>> readout_value("CC[C@@H](C)[C@@H](NC(=O)[C@@H](CCCNC(=N)N)NC(=O)[C@@H](CCCNC(=N)N)NC(=O)[C@@H](Cc1ccccc1)NC(=O)[C@@H](CC(C)C)NC(=O)[C@@H](CCCNC(=N)N)NC(=O)[C@H](N)CCCNC(=N)N)C(=O)N[C@H](CC(C)C)C(=O)N[C@H](CCCNC(=N)N)C(=O)N[C@H](Cc1c[nH]c2ccccc12)C(=O)N[C@H](CC(C)C)C(N)=O [RW-BP100-All-D] (HELM PEPTIDE1{[dR].[dR].[dL].[dF].[dR].[dR].[dI].[dL].[dR].[dW].[dL].[am]}$$$$V2.0)")
1.94

Reference for the values: paper PMC8822125
